# systemName: HLA-A*02:01
# protocolText: IEDB peptide-MHC binding, purified MHC/competitive/radioactivity; filed as Kd, often an IC50 or EC50 that approximates it; bounds were set here for any values at or beyond the usual limits of such assays
# conditionContext: source organism: Homo sapiens
So basically, if Kd comes in under 4 µM it's y, and if it's 4 µM or more it's n.

LLVVMGTLV: y
STFSFRNAL: n
CLERDLQRL: n
WLGLLGPNG: n
VCMTVDSLV: n

Query: Report whether reported Kd is lower than 4 µM (strictly) for TTQHWLGLL
Response: n

Query: Report whether reported Kd is lower than 4 µM (strictly) for NCSVYDFFV
Response: n

Query: Report whether reported Kd is lower than 4 µM (strictly) for AARPDDPTL
Response: n

Query: Report whether reported Kd is lower than 4 µM (strictly) for QGRGQCTEV
Response: n

Query: Report whether reported Kd is lower than 4 µM (strictly) for QMGRNSMKL
Response: n

Query: Report whether reported Kd is lower than 4 µM (strictly) for ITTQHWLGL
Response: n

Query: Report whether reported Kd is lower than 4 µM (strictly) for LLSCLGCKIL
Response: n

Query: Report whether reported Kd is lower than 4 µM (strictly) for GTLVALVGL
Response: n

Query: Report whether reported Kd is lower than 4 µM (strictly) for WMKRFNPPA
Response: n

Query: Report whether reported Kd is lower than 4 µM (strictly) for GAQGQFPRV
Response: n

Query: Report whether reported Kd is lower than 4 µM (strictly) for LLAFLQYRRL
Response: y

Query: Report whether reported Kd is lower than 4 µM (strictly) for AANDPIFVV
Response: n

Query: Report whether reported Kd is lower than 4 µM (strictly) for LLSCLGCKI
Response: y

Query: Report whether reported Kd is lower than 4 µM (strictly) for SAANDPIFV
Response: n

Hello, the source for this data is the Immune Epitope Database (IEDB), in case you need it.
